- Tested System: Dsg3-Fc recombinant fusion protein (Homo sapiens, UniProt P32926)
- Sequence (P32926 50-615): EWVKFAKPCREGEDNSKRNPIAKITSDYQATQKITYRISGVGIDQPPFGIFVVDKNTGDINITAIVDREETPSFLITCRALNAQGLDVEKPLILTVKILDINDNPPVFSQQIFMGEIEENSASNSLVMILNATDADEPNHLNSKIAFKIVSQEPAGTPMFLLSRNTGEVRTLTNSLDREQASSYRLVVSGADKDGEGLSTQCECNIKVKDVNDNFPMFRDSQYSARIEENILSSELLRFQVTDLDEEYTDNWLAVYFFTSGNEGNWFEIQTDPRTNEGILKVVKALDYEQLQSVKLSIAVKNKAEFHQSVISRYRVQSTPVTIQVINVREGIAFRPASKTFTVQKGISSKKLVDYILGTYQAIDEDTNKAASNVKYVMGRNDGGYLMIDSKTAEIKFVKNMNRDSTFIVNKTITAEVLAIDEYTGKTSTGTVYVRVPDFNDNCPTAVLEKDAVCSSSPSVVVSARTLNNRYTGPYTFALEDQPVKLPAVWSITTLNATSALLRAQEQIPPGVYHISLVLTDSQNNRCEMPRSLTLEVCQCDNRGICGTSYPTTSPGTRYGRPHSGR
- Test Protocol: SPR
# koff per record follows

{"columns": ["Binder", "koff, s⁻¹"],
 "data": [
  ["F779 scFv, somatically mutated (scFv, V domains shown) VH: QVQLVQSGADVKKPGASVKVSCTASGNTFTTYSLHWVRQAPGQGLEWMGVIDPSGGSTSYAQKFQGRLTMTRDTSTSTFYMELSSLRSEDTAVYYCARSIESISGRTLGYWGQGTLVTVSS VL: DIVMTQTPLSSPVTLGQPASISCRSSETLVHSDGNTYLSWLQQRPGQPPRLLIYKISNRFSGVPDRFSGSGAGTDFTLKISRVEAEDVGVYYCLQATEFPYTFGQGTKLEIK", 0.000548],
  ["PVE4-8 scFv mAb, somatically mutated (scFv, V domains shown) VH: QVQLVQSWAEVKKPGASVKFSCKASGYTFTAYYMHWVRQAPGQGLEWMGIINPSGGIATYAEKFQGRVTMTRDTSTTTVYMELSSLRSQDAAVYYCARDRQGFDLDVWGQGTTVTVSS VL: ELVLTQPPSASGSPGQSVTISCTGTSSDVGGYNYVSWYQQHPGKAPKLMIYEVNKRPSGVPDRFSGSRSGNTASLTVSGLQAEDEADYYCSSYAGSNNLVFGGGTKVTVL", 0.00123],
  ["4.2 scFv mAb, somatically mutated (scFv, V domains shown) VH: EVQLVQSGAEVKKPGASLKVSCQASGYIFTSHYIHWVRQAPGQGLEWMGIINPSGGKTTFAQKFQGRVTMTRDTSTRTVYMEMSGLRSEDTAVYYCARDQSLGMDVWGQGTTVIVSS VL: ELALTQPPSVSGSPGQSITISCTGTSSDVGGYNYVSWYQQHPGKAPKLMIYEVSKRPSGVSNRFSGSKSGNTASLTISGLQAEDEADYYCSSYAGSNNWVFGGGTKLTVL", 0.000712],
  ["3.2 scFv mAb, somatically mutated (scFv, V domains shown) VH: QVQLVQSGAEVKKPGASVKVSCKASGYTFTSYYMHWVRQAPGHGLEWMGIINPSGGIANYAQKFQGRVTMTRDTSTSTVYMDLSSLTSEDTAVYYCARDLGGFDFDYWGQGTLVTVSS VL: ELALTQPPSVSGSPGQSVTISCTGTSSDIGRYNFVSWYQQHPGKAPKLMIYEIYKRPSGVPDRFSGSRSGNTASLTVSGLQAEDEADYYCSSYVGNNDLVFGGGTQLTVL", 0.00231]
]}

The origin of these recorded values is paper PMC4120239.
